Assay: Clearance in Sprague-Dawley rat at 1 mg/kg, iv
Format: ADME, organism-based
Parameters: dose 1 mg/kg, route intravenous
Settings: in vivo
recorded_metric: clearance

INSERT INTO assay_data (line_notation, value_measured) VALUES
  ('CCN(CC)Cc1cc(N(c2cc(C)nc3cc(Cl)ccc23)S(=O)(=O)c2cccc(Cl)c2Cl)ccc1O', '1.17 mL/min/kg');

###

Assay: Volume of distribution at steady state in Sprague-Dawley rat at 1 mg/kg, iv
Assay type: ADME, organism-based
Design: dose 1 mg/kg, route intravenous
Details: in vivo, read-out: Vdss
recorded_metric: Vd (L/kg)

INSERT INTO assay_data (line_notation, recorded_metric, unit_string, value_measured) VALUES
  ('CCN(CC)Cc1cc(N(c2cc(C)nc3cc(Cl)ccc23)S(=O)(=O)c2cccc(Cl)c2Cl)ccc1O', 'Vd', 'L/kg', 0.84);
